- Target or test system: SARS-COV-2RBD (SARS-CoV-2, UniProt P0DTC2 319-541)
- Test details: ELISA, RBD coated at 2 μg/mL, 293T transfection supernatant, anti-human IgG-ALP detection
Property label: binding result

单抗16-CQTS061 (antibody, V domains shown) VH: EVQLVESGGGLVQPGGSLRLSCAASGFTVISNYMSWVRQAPGKGLEWVSVIYRGGSTYFADSVKGRFTISRDNSKNTLYLQMNSLRAEDTAVYYCARLASDGSGSYLDYFDYWGQGTLVTVSS VL: QSVLTQPPSVSGAPGQRVTISCTGSSSNIGADYDVHWYQQFPGTAPKLLIYGNSNRPSGVPDRFSGSKSGTSASLAITGLQAEDEADYYCQSYDSSLSGSWVFGGGTKLTVL    binds
单抗18-CQTS063 (antibody, V domains shown) VH: QVQLVQSGAEVKKPGSSVKVSCKASGGTFSSYAISWVRQAPGQGLEWMGGIIPIFGTANYAQKFQGRVTITADESTSTAYMELSSLRSEDTAVYYCATDGGGGSYYYAHYYYGMDVWGQGTTVTVSS VL: QTVVTQEPSFSVSPGGTVTLTCGLSSGSVPTSYFPSWYQQTPGQAPRTLIYGTNTRSSGVPDRFSGSILGNKAALTITGAQADDESDYYCVLYMGSGIVVFGGGTKLTVL    binds
单抗13-CQTS057 (antibody, V domains shown) VH: QVTLRESGPALVKPTQTLTLTCTFSGFSLSTSGMCVSWIRQPPGKALEWLARIDWDDDKYYSTSLRTRLTISKDTSKNLVVLTMTNMDPVDTATYYCALGRAGTMDYWGQGTLVTVSS VL: DIQMTQSPSSLSASVGDRVTITCRASQSIRSYLNWYQQKPGKAPKVLIYAASSLQSGVPSRFSGSGSGTDFTLTISSLQPGDFATYYCQQSYSPPYTFGQGTKLEIK    binds
